- test system: PIM1 (Homo sapiens (Human), UniProt P11309)
- Sequence (P11309 whole entry): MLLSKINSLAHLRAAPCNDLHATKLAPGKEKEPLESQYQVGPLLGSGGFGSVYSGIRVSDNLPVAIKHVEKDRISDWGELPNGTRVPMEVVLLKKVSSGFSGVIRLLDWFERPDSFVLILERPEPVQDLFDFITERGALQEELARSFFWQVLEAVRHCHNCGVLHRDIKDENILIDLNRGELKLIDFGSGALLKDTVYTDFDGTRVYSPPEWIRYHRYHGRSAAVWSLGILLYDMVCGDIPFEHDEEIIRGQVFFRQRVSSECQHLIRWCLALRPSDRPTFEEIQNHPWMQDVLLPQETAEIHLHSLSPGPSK
- experimental protocol: biochemical
- Assay type: biochemical
- test settings: 10 μM ATP, 90 min, room temperature; read-out: PIM1 LC3K (KI)
pKi: −log10 of the molar value.
# if value of pKi reaches 9, tag MET; if it stays below, tag NOT MET

Prompt line: Decide: is the reported value of pKi for CCn1cc(-c2cc3c(cn2)cnn3-c2cccc(NC3CCCCNC3)n2)cn1 (stereo not shown) equal to or greater than 9?
Response line: NOT MET

Prompt line: Decide: is the reported value of pKi for Cc1cncc(-c2cc3c(cn2)cnn3-c2cccc(N3CCC4(CCCN4)CC3)n2)n1 equal to or greater than 9?
Response line: MET

Prompt line: Decide: is the reported value of pKi for Cn1ncc(-c2cc3c(cn2)cnn3-c2ccccc2F)c1Cl equal to or greater than 9?
Response line: NOT MET

Prompt line: Decide: is the reported value of pKi for C[C@@]1(O)CNCCN(c2cccc(-n3ncc4cnc(-c5cnn(CC(F)(F)F)c5)cc43)n2)C1 equal to or greater than 9?
Response line: NOT MET

Prompt line: Decide: is the reported value of pKi for OC1CNCCN(c2cccc(-n3ncc4cnc(-c5cncc(C6COC6)c5)cc43)n2)C1 (stereo not shown) equal to or greater than 9?
Response line: MET

Prompt line: Decide: is the reported value of pKi for Cn1cc(-c2cc3c(cn2)cnn3-c2cccc(N3CC4(CNC4)C3)n2)cn1 equal to or greater than 9?
Response line: NOT MET

Prompt line: Decide: is the reported value of pKi for CS(=O)(=O)CCn1cc(-c2cc3c(cn2)cnn3-c2cccc(N3CCCNCC3)n2)cn1 equal to or greater than 9?
Response line: MET

Prompt line: Decide: is the reported value of pKi for Cc1cncc(-c2cc3c(cn2)cnn3-c2cccc(N3C[C@@H](N)C[C@H](F)C3)n2)n1 equal to or greater than 9?
Response line: MET

Prompt line: Decide: is the reported value of pKi for Cc1cncc(-c2cc3c(cn2)cnn3-c2cccc(N3C[C@@H](N)C[C@@H](F)C3)n2)n1 equal to or greater than 9?
Response line: MET

Prompt line: Decide: is the reported value of pKi for COc1ccc(-n2ncc3cnc(-c4cncc(C)n4)cc32)nc1N1CCNCC(O)C1 (stereo not shown) equal to or greater than 9?
Response line: MET

Prompt line: Decide: is the reported value of pKi for Cc1cncc(-c2cc3c(cn2)cnn3-c2ccc(C3CC3)c(N3CCC[C@H](N)C3)n2)n1 equal to or greater than 9?
Response line: MET

###

- test system: PIM1 (Homo sapiens (Human))
- experimental protocol: biochemical
- Assay type: biochemical
- test settings: 10 μM ATP, 90 min, room temperature; read-out: PIM1 LC3K (KI)
Counter-ions that a name gives are not always drawn.
Exercise: state measured pKi for each of the compounds provided.
Scale for pKi: -log10 of concentration given in mol/L; no unit attached.

Entry Cc1cncc(-c2cc3c(cn2)cnn3-c2cccc(N3CCCC4(CNC4)C3)n2)n1 [Compound 293] , pKi reported as 10.21

Entry O=c1cncc(-c2cc3c(cn2)cnn3-c2cccc(N3CCNCC3)n2)[nH]1 [Compound 287] , pKi reported as 9.16

Entry c1cc(N2CCCNCC2)nc(-n2ncc3cnc(-c4cnn(C5CCC5)c4)cc32)c1 [Compound 147] , pKi reported as 9.67

Entry Cc1cncc(-c2cc3c(cn2)cnn3-c2cnc(C3CC3)c(N3CCC[C@H](N)C3)n2)n1 [Compound 238] , pKi reported as 10.59

Entry Cc1cncc(-c2cc3c(cn2)cnn3-c2cccc(N3CCNCC3)n2)n1 [Compound 123] , pKi reported as 10.02

Entry c1ccc(COc2cncc(-c3cc4c(cn3)cnn4-c3cccc(N4CCNCC4)n3)n2)cc1 [Compound 276] , pKi reported as 9.31

Entry Cc1cncc(-c2cc3c(cn2)cnn3-c2cccc(N3CCNC(C)C3)n2)n1 (single isomer, unassigned) [Compound 185] , pKi reported as 10.22

Entry Cn1cc(-c2cc3c(cn2)cnn3-c2cn(C)c(=O)c(N3CCC[C@@H](N)C3)n2)cn1 [Compound 243] , pKi reported as 7.24

Entry CO[C@]1(C)CNCCN(c2cccc(-n3ncc4cnc(-c5cnn(CC(F)(F)F)c5)cc43)n2)C1 [Compound 264] , pKi reported as 8.53

Entry NC1CN(c2cccc(-n3ncc4cnc(-c5cnn(CC(F)(F)F)c5)cc43)n2)C1 [Compound 258] , pKi reported as 9.29

Entry N#Cc1cncc(-c2cc3c(cn2)cnn3-c2cccc(N3CCNCC3)n2)n1 [Compound 177] , pKi reported as 8.98

Entry N[C@H]1CCC[C@@H]1Nc1cncc(-c2cc3c(cn2)cnn3-c2ccccn2)n1 [Compound 307] , pKi reported as 9.92

Entry CCn1cc(-c2cc3c(cn2)cnn3-c2cccc(N3CCCC(N)CC3)n2)cn1 (centres unmarked) [Compound 140] , pKi reported as 8.98

Entry Clc1cncc(-c2cc3c(cn2)cnn3-c2cccc(N3CCNCC3)n2)n1 [Compound 275, dihydrochloride] , pKi reported as 9.14

Entry N[C@H]1CCC[C@@H]1Oc1cncc(-c2cc3c(cn2)cnn3-c2ccccn2)n1 [Compound 304] , pKi reported as 10.03

Entry Nc1cncc(-c2cc3c(cn2)cnn3-c2cccc(N3CCCNCC3)n2)n1 [Compound 247] , pKi reported as 10.64

Entry NCC1CN(c2cccc(-n3ncc4cnc(-c5cnn(CC(F)(F)F)c5)cc43)n2)C1 [Compound 262] , pKi reported as 8.91

Entry O[C@@H]1CNCCN(c2cccc(-n3ncc4cnc(-c5cnn(CC(F)(F)F)c5)cc43)n2)C1 [Compound 188] , pKi reported as 9.76

Entry Cn1cc(-c2cc3c(cn2)cnn3-c2cccc(C3CCCNCC3)n2)cn1 (centres unmarked) [Compound 235] , pKi reported as 8.81

Entry Cc1cncc(-c2cc3c(cn2)cnn3-c2ccc(C(F)(F)F)c(N3CCNCC(O)C3)n2)n1 (centres unmarked) [Compound 219] , pKi reported as 9.36

Entry Cn1cc(-c2cc3c(cn2)cnn3-c2cccc(N3CC(N)C3)n2)cn1 [Compound 257] , pKi reported as 9.11

Entry Cc1cncc(-c2cc3c(cn2)cnn3-c2ccc3c(n2)CC(CN)CO3)n1 (centres unmarked) [Compound 292] , pKi reported as 8.80

Entry Cc1cncc(-c2cc3c(cn2)cnn3-c2cc(C3COC3)cc(N3CCC[C@H](N)C3)n2)n1 [Compound 250] , pKi reported as 8.41

Entry CCc1cncc(-c2cc3c(cn2)cnn3-c2cccc(N3CCNCC(O)C3)n2)n1 (centres unmarked) [Compound 172] , pKi reported as 10.47

Entry Cc1cncc(-c2cc3c(cn2)cnn3-c2cccc(NC3CCNCC3)n2)n1 [Compound 190] , pKi reported as 10.22

Entry Cc1cncc(-c2cc3c(cn2)cnn3-c2cnc(C)c(N3CCC[C@H](N)C3)n2)n1 [Compound 228] , pKi reported as 10.13

Entry COc1ccc(-n2ncc3cnc(-c4cncc(C)n4)cc32)nc1N1CCC[C@H](N)C1 [Compound 186] , pKi reported as 10.67

Entry N[C@@H]1CCCN(c2cccc(-n3ncc4cnc(-c5cncs5)cc43)n2)C1 [Compound 110] , pKi reported as 9.30

Entry Cn1cc(-c2cc3c(cn2)cnn3-c2cn(C)c(=O)c(N3CCC[C@H](N)C3)n2)cn1 [Compound 242] , pKi reported as 6.89

Entry Cc1cncc(-c2cc3c(cn2)cnn3-c2cccc(N3CC(O)C(O)C3)n2)n1 (centres unmarked) [Compound 232] , pKi reported as 8.92

Entry CCn1cc(-c2cc3c(cn2)cnn3-c2cccc(N3CCC(O)CC3)n2)cn1 [Compound 129] , pKi reported as 8.46

Entry OC1CN(c2cncc(-c3cc4c(cn3)cnn4-c3cccc(N4CCNCC4)n3)n2)C1 [Compound 281] , pKi reported as 10.32
